System: HACAT
run_description: qHTS assay to identify novel small-molecules to repurpose for Merkel cell carcinoma treatment (AID 1296009); also: nearly all actives have a fitted effect of over 60% in size
cond: MCC and control cell lines, CellTiter-Glo viability, 72 h; at 44.8 µM (top of the series) unless noted
Results filed as inconclusive are left out. Active and inactive are the calls of the source. Calls follow the shape of the dose curve; as a rule, active = well fitted inhibition curve with a large enough effect; inconclusive = small, poorly fitted or top-dose-only effect; inactive = flat fitted curve, though single readings scatter.

molecule_smiles	outcome
CC(C)C[C@H](NC(=O)[C@@H]1O[C@H]1C(=O)O)C(=O)NCCCCN=C(N)N	inactive
Cc1c(Cc2ccc3ccccc3n2)c2cc(F)ccc2n1CC(=O)O	inactive
COC(=O)[C@H](Cc1cccc(C(=N)N)c1)[C@@H](C)NC(=O)c1ccc(-c2cc[n+]([O-])cc2)cc1	inactive
